- target_or_test_system: human TfR1 (Homo sapiens, UniProt P02786)
- Sequence (P02786 89-760): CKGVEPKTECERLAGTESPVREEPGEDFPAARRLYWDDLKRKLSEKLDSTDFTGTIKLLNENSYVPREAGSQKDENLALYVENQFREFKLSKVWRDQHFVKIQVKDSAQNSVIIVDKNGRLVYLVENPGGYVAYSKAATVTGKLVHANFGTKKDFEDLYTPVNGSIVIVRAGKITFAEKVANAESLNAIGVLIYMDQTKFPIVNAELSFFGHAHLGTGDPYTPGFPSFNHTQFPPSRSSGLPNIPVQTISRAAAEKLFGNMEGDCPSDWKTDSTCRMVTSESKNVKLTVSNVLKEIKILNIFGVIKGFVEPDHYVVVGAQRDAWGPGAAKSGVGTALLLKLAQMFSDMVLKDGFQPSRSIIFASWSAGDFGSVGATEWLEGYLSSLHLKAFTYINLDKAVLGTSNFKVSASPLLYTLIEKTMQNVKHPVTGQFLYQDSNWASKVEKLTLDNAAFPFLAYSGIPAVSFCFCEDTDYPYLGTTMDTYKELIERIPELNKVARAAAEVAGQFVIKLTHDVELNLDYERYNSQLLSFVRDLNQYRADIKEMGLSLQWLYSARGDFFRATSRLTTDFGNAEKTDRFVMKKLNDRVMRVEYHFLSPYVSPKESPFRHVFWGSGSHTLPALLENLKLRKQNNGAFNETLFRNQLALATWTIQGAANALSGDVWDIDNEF
recorded_metric: Kd
Enter the number, and then the unit.

Query: # query: Kd of entry CC[C@H](C)[C@@H]1NC(=O)[C@@H]2CSCC(=O)N3CN(CN(C3)C(=O)CSC[C@@H](C(=O)N[C@@H](C)C(N)=O)NC(=O)[C@H](Cc3cccc4ccccc34)NC(=O)[C@H](CO)NC1=O)C(=O)CSC[C@H](NC(=O)[C@H](C)N)C(=O)N[C@@H](CO)C(=O)N1CCC[C@H]1C(=O)N[C@@H](CC(=O)O)C(=O)N[C@@H](C)C(=O)N[C@@H](Cc1c[nH]cn1)C(=O)N[C@@H](CC(C)C)C(=O)NCC(=O)N2 [compound 16029]
Result: 60 nM

Query: Could you do the same for CC[C@H](C)[C@@H]1NC(=O)[C@@H]2CSCC(=O)N3CN(CN(C3)C(=O)CSC[C@@H](C(=O)N[C@@H](C)C(N)=O)NC(=O)[C@H](Cc3ccc(O)cc3)NC(=O)[C@H](CO)NC1=O)C(=O)CSC[C@H](NC(=O)[C@H](C)N)C(=O)N[C@@H](CO)C(=O)N1C[C@H](O)C[C@H]1C(=O)N[C@@H](CC(=O)O)C(=O)N[C@@H](C)C(=O)N[C@@H](Cc1c[nH]cn1)C(=O)N[C@@H](CC(C)C)C(=O)NCC(=O)N2 [compound 16047] , please?
Result: 49 nM

Query: Could you do the same for CC[C@H](C)[C@@H]1NC(=O)[C@@H]2CSCC(=O)N3CN(CN(C3)C(=O)CSC[C@@H](C(=O)N[C@@H](C)C(N)=O)NC(=O)[C@H](Cc3ccc4ccccc4c3)NC(=O)[C@H](CO)NC1=O)C(=O)CSC[C@H](NC(=O)[C@H](C)N)C(=O)N[C@@H](CO)C(=O)N1CCC[C@H]1C(=O)N[C@@H](CC(=O)O)C(=O)N[C@@H](C)C(=O)N[C@@H](Cc1c[nH]cn1)C(=O)N[C@@H](CC(C)C)C(=O)NCC(=O)N2 [compound 16031] , please?
Result: 68 nM

Query: Could you do the same for CC[C@H](C)[C@@H]1NC(=O)[C@@H]2CSCC(=O)N3CN(CN(C3)C(=O)CSC[C@@H](C(=O)N[C@@H](C)C(N)=O)NC(=O)[C@H](Cc3ccc(O)cc3)NC(=O)[C@H](CO)NC1=O)C(=O)CSC[C@H](NC(=O)[C@H](C)N)C(=O)N[C@@H](CO)C(=O)N1CCC[C@H]1C(=O)N[C@@H](CC(=O)O)C(=O)N[C@@H](C)C(=O)N[C@@H](Cc1c[nH]cn1)C(=O)N[C@@H](CC(C)C)C(=O)NCC(=O)N2 [BCY15468] , please?
Result: 143 nM
